# STUDY_TARGET: Keap1-Maltose Binding Protein (MBP tag) (Homo sapiens)
# ASSAY_DETAILS: Nrf2-Keap1 HTRF (TR-FRET) binding assay: displacement of biotinylated ETGE peptide from Keap1-MBP
# CONDITION_LABEL: HTRF (TR-FRET); displacement of ETGE-biotin from Keap1-MBP; values banded into grades; read-out: Binding (IC50) ETGE-Keap1
Starred links: 1 amine or outer side, 2 acyl side, 3 side chain; linkers in the order of their positions; H or OH if unused. Positions of bridges follow the written chain, without caps; N, C: chain ends. Residues, ends and D or L forms follow the SMILES beside them. *: point of attachment. Pyridine(3,5-bisCH2) = c1ncc(C[*:2])cc1C[*:1]; Stearoyl = CCCCCCCCCCCCCCCCCC(=O)*; βAla = NCCC(=O)O
RESULT_TYPE: IC50

CCCCCCCCCCCCCCCCCC(=O)NCCC(=O)N[C@@H](CC(C)C)C(=O)N[C@@H](CCC(N)=O)C(=O)N[C@H]1CSCc2cncc(c2)CSC[C@@H](C(=O)N[C@@H](CC(C)C)C(=O)N2CCC[C@H]2C(N)=O)NC(=O)[C@H](CCC(=O)O)NC(=O)CNC(=O)[C@H]([C@@H](C)O)NC(=O)[C@H](CCC(=O)O)NC(=O)[C@@H]2CCCN2C(=O)[C@H](CC(=O)O)NC1=O [Example 65] ({Stearoyl-βAla}-LQCDPETGECLP-NH2; linker 3-10 via Pyridine(3,5-bisCH2)) = < 1 nM

* * *

# STUDY_TARGET: Keap1-Maltose Binding Protein (MBP tag) (Homo sapiens)
# ASSAY_DETAILS: Nrf2-Keap1 HTRF (TR-FRET) binding assay: displacement of biotinylated ETGE peptide from Keap1-MBP
pIC50: −log10 of the molar value. Starred links: 1 amine or outer side, 2 acyl side, 3 side chain; linkers in the order of their positions; H or OH if unused. Positions of bridges follow the written chain, without caps; N, C: chain ends. Residues, ends and D or L forms follow the SMILES beside them. pXylylene = c1cc(C[*:2])ccc1C[*:1]
Catalogue of molecules with associated pIC50
RESULT_TYPE: pIC50

CC(C)C[C@@H]1NC(=O)[C@@H]2CCCN2C(=O)[C@H](CC(C)C)NC(=O)[C@@H]2CSCc3ccc(cc3)CSC[C@H](NC(=O)[C@H](CCC(N)=O)NC1=O)C(=O)N[C@@H](CC(=O)O)C(=O)N[C@@H](CCC(=O)O)C(=O)N[C@@H](CCC(=O)O)C(=O)N[C@@H]([C@@H](C)O)C(=O)NCC(=O)N[C@@H](CCC(=O)O)C(=O)N2 [Example 5] (cyclo(CDEETGECLPLQ); linker 1-8 via pXylylene) = 7.00 to 9.00
CCCCCCCCCCCCCC(=O)N[C@H]1C[C@H]2C(=O)N[C@@H](CCC(N)=O)C(=O)N[C@H]3CSCc4ccccc4CSC[C@H](NC(=O)[C@H](CCC(=O)O)NC(=O)CNC(=O)[C@H]([C@@H](C)O)NC(=O)[C@H](CCC(=O)O)NC(=O)[C@@H]4CCCN4C(=O)[C@H](CC(=O)O)NC3=O)C(=O)N[C@@H](CC(C)C)C(=O)N3CCC[C@@H]3C(=O)N2C1 = > 9.00
CCCCCCCCCCCCCCCCCCCC(=O)N[C@H]1C[C@H]2C(=O)N[C@@H](CCC(N)=O)C(=O)N[C@H]3CSCc4ccccc4CSC[C@H](NC(=O)[C@H](CCC(=O)O)NC(=O)CNC(=O)[C@H]([C@@H](C)O)NC(=O)[C@H](CCC(=O)O)NC(=O)[C@@H]4CCCN4C(=O)[C@H](CC(=O)O)NC3=O)C(=O)N[C@@H](CC(C)C)C(=O)N3CCC[C@@H]3C(=O)N2C1 = > 9.00

* * *

# STUDY_TARGET: Keap1-Maltose Binding Protein (MBP tag) (Homo sapiens)
# ASSAY_DETAILS: Nrf2-Keap1 HTRF (TR-FRET) binding assay: displacement of biotinylated ETGE peptide from Keap1-MBP
# CONDITION_LABEL: HTRF (TR-FRET); displacement of ETGE-biotin from Keap1-MBP; values banded into grades; read-out: Binding (IC50) ETGE-Keap1
pIC50: −log10 of the molar value. Starred links: 1 amine or outer side, 2 acyl side, 3 side chain; linkers in the order of their positions; H or OH if unused. Positions of bridges follow the written chain, without caps; N, C: chain ends. Residues, ends and D or L forms follow the SMILES beside them. *: point of attachment. X7 = c1ccc(-c2ccccc2C[*:2])c(C[*:1])c1; oXylylene = c1ccc(C[*:2])c(C[*:1])c1; X2 = c1ccc2cc(C[*:2])c(C[*:1])cc2c1; Stearoyl = CCCCCCCCCCCCCCCCCC(=O)*; βAla = NCCC(=O)O
RESULT_TYPE: pIC50

CCCCCCCCCCCCCCCCCC(=O)NCCC(=O)N[C@@H](CCCCN)C(=O)N[C@@H](CCCCN)C(=O)N[C@H]1CSCc2ccccc2CSC[C@@H](C(=O)N[C@@H](CC(C)C)C(=O)N2CCC[C@H]2C(N)=O)NC(=O)[C@H](CCC(=O)O)NC(=O)CNC(=O)[C@H]([C@@H](C)O)NC(=O)[C@H](CCC(=O)O)NC(=O)[C@@H]2CCCN2C(=O)[C@H](CC(=O)O)NC1=O [Example 57] ({Stearoyl-βAla}-KKCDPETGECLP-NH2; linker 3-10 via oXylylene) = > 9.00
CCCCCCCCCCCCCCCCCC(=O)N[C@H]1C[C@H]2C(=O)N[C@@H](CCC(N)=O)C(=O)N[C@H]3CSCc4cccc(c4)CSC[C@H](NC(=O)[C@H](CCC(=O)O)NC(=O)CNC(=O)[C@H]([C@@H](C)O)NC(=O)[C@H](CCC(=O)O)NC(=O)[C@@H]4CSCN4C(=O)[C@H](CC(=O)O)NC3=O)C(=O)N[C@@H](CC(C)C)C(=O)N3CCC[C@@H]3C(=O)N2C1 = > 9.00
CCCCCCCCCCCCCCCCCC(=O)NCCC(=O)N[C@@H](CC(C)C)C(=O)N[C@@H](CCC(N)=O)C(=O)N[C@H]1CSCc2ccccc2CSC[C@@H](C(=O)N[C@@H](CC(C)C)C(=O)N2CCC[C@H]2C(=O)O)NC(=O)[C@H](CCC(=O)O)NC(=O)CNC(=O)[C@H]([C@@H](C)O)NC(=O)[C@H](CCC(=O)O)NC(=O)[C@@H]2CCCN2C(=O)[C@H](CC(=O)O)NC1=O [Example 35] ({Stearoyl-βAla}-LQCDPETGECLP-OH; linker 3-10 via oXylylene) = 7.00 to 9.00
CCCCCCCCCCCCCCCCCC(=O)NCCC(=O)N[C@@H](CC(C)C)C(=O)N[C@@H](CCC(N)=O)C(=O)N[C@H]1CSCc2cc3ccccc3cc2CSC[C@@H](C(=O)N[C@@H](CC(C)C)C(=O)N2CCC[C@H]2C(=O)O)NC(=O)[C@H](CCC(=O)O)NC(=O)CNC(=O)[C@H]([C@@H](C)O)NC(=O)[C@H](CCC(=O)O)NC(=O)[C@@H]2CCCN2C(=O)[C@H](CC(=O)O)NC1=O [Example 36] ({Stearoyl-βAla}-LQCDPETGECLP-OH; linker 3-10 via X2) = 7.00 to 9.00
CC(=O)N[C@H]1CSCc2ccccc2-c2ccccc2CSC[C@@H](C(N)=O)NC(=O)[C@H](CCC(=O)O)NC(=O)CNC(=O)[C@H]([C@@H](C)O)NC(=O)[C@H](CCC(=O)O)NC(=O)[C@H](CCC(=O)O)NC(=O)[C@H](CC(=O)O)NC1=O [Example 24] (Ac-CDEETGEC-NH2; linker 1-8 via X7) = 7.00 to 9.00

* * *

# STUDY_TARGET: Keap1-Maltose Binding Protein (MBP tag) (Homo sapiens, UniProt Q14145)
# Sequence (Q14145 whole entry): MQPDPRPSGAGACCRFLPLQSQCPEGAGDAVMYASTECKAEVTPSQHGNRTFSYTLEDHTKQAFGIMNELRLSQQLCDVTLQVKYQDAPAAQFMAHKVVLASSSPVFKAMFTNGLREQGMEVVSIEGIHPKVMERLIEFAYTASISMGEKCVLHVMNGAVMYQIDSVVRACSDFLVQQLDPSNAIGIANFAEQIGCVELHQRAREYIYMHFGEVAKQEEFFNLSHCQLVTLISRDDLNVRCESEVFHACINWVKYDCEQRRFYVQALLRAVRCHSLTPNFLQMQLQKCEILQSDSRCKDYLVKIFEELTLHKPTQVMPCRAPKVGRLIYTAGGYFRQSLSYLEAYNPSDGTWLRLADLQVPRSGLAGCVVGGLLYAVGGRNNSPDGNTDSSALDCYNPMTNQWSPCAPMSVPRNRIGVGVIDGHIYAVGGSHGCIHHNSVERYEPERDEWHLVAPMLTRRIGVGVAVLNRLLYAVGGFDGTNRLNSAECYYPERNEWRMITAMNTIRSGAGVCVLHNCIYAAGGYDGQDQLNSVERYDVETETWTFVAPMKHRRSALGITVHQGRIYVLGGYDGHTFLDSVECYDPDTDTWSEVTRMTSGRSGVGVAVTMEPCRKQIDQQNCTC
# ASSAY_DETAILS: Nrf2-Keap1 HTRF (TR-FRET) binding assay: displacement of biotinylated ETGE peptide from Keap1-MBP
Starred links: 1 amine or outer side, 2 acyl side, 3 side chain; linkers in the order of their positions; H or OH if unused. Positions of bridges follow the written chain, without caps; N, C: chain ends. Non-standard residues stand in square brackets, D forms with d. Residues, ends and D or L forms follow the SMILES beside them. Trp(2-yl) = O=C([C@H](Cc1c([*:3])[nH]c2ccccc12)N[*:1])[*:2]
RESULT_TYPE: IC50

CC(C)C[C@H](NC(=O)[C@@H]1CSc2[nH]c3ccccc3c2C[C@H](NC(=O)[C@H](CCC(N)=O)NC(=O)[C@@H](N)CC(C)C)C(=O)N[C@@H](CC(=O)O)C(=O)N[C@@H](CCC(=O)O)C(=O)N[C@@H](CCC(=O)O)C(=O)N[C@@H]([C@@H](C)O)C(=O)NCC(=O)N[C@@H](CCC(=O)O)C(=O)N1)C(=O)N1CCC[C@H]1C(=O)O [Example 1] (H-LQ[Trp(2-yl)]DEETGECLP-OH; thioether 3-10) = 1 to 100 nM
